The origin of these recorded values is the antibiotic and cytotoxicity screens of Wong et al. (2023).

System: HepG2
assay_summary: cytotoxicity call (relative viability < 0.9)
measurement_context: 10 µM
In all, about 39,000 compounds went through this assay and about 3,300 (8.5%) were called active. What follows is part of a selection rich in actives, with near analogues and random picks from the rest.
Outcomes: active, inactive

>  <compound>
C[C@@H]1CN([C@H](C)CO)C(=O)c2cc(NC(=O)Nc3ccc4c(c3)OCO4)ccc2O[C@@H](C)CCCCO[C@@H]1CN(C)Cc1ccccc1

>  <target_system>
HepG2

>  <group_label>
inactive

$$$$
>  <compound>
C[C@@H]1CN([C@H](C)CO)C(=O)c2ccccc2-c2ccccc2CO[C@H]1CN(C)C(=O)Nc1ccccc1C(F)(F)F

>  <target_system>
HepG2

>  <group_label>
inactive

$$$$
>  <compound>
Cc1ccc(-c2ccc(OC(=O)c3ccccc3F)cc2)cc1

>  <target_system>
HepG2

>  <group_label>
inactive

$$$$
>  <compound>
Cc1noc(C)c1NC(=O)N(C)C[C@H]1Oc2c(NC(=O)Nc3ccc(C(F)(F)F)cc3)cccc2C(=O)N([C@@H](C)CO)C[C@H]1C

>  <target_system>
HepG2

>  <group_label>
active

$$$$
>  <compound>
O=C(Oc1ccc(C2CCCCC2)cc1)c1cccs1

>  <target_system>
HepG2

>  <group_label>
inactive

$$$$
>  <compound>
C[C@@H]1CCCCO[C@H](CN(C)Cc2ccccc2)[C@@H](C)CN([C@@H](C)CO)C(=O)c2cc(NC(=O)Nc3ccc4c(c3)OCO4)ccc2O1

>  <target_system>
HepG2

>  <group_label>
inactive

$$$$
>  <compound>
Cc1noc(C)c1S(=O)(=O)Nc1ccc2c(c1)C(=O)N([C@@H](C)CO)C[C@@H](C)[C@H](CN(C)Cc1ccccc1)OCCCC[C@H](C)O2

>  <target_system>
HepG2

>  <group_label>
inactive

$$$$
>  <compound>
CC(C)NC(=O)N(C)C[C@@H]1Oc2ccc(NC(=O)Cc3ccccc3)cc2CC(=O)N([C@@H](C)CO)C[C@@H]1C

>  <target_system>
HepG2

>  <group_label>
inactive

$$$$
>  <compound>
C[C@H](CO)N1C[C@H](C)[C@@H](CN(C)Cc2ccc3c(c2)OCO3)OCCCC[C@H](C)Oc2ccc(NC(=O)Nc3ccccc3)cc2C1=O

>  <target_system>
HepG2

>  <group_label>
inactive

$$$$
>  <compound>
C[C@H]1CN([C@@H](C)CO)C(=O)c2cccc(NC(=O)C3CCOCC3)c2O[C@H]1CN(C)S(=O)(=O)c1ccccc1

>  <target_system>
HepG2

>  <group_label>
inactive

$$$$
>  <compound>
Cc1noc(C)c1NC(=O)Nc1ccc2c(c1)CC(=O)N([C@@H](C)CO)C[C@@H](C)[C@H](CN(C)S(=O)(=O)c1cn(C)cn1)O2

>  <target_system>
HepG2

>  <group_label>
inactive

$$$$
>  <compound>
C[C@H](CO)N1C[C@H](C)[C@@H](CN(C)C(=O)Nc2ccc(C(F)(F)F)cc2)Oc2c(NC(=O)Nc3ccc(C(F)(F)F)cc3)cccc2C1=O

>  <target_system>
HepG2

>  <group_label>
active

$$$$
>  <compound>
C[C@@H]1CCCCO[C@H](CN(C)S(C)(=O)=O)[C@@H](C)CN([C@H](C)CO)C(=O)c2cc(NS(=O)(=O)c3ccccc3)ccc2O1

>  <target_system>
HepG2

>  <group_label>
inactive

$$$$
>  <compound>
C[C@@H]1CN([C@@H](C)CO)C(=O)c2cc(NC(=O)Nc3ccccc3)ccc2O[C@@H](C)CCCCO[C@@H]1CN(C)Cc1ccc2c(c1)OCO2

>  <target_system>
HepG2

>  <group_label>
active

$$$$
>  <compound>
COc1cccc(C#Cc2cnc3c(c2)C(=O)N([C@H](C)CO)C[C@H](C)[C@@H](CN(C)C(=O)C2CCC2)O3)c1

>  <target_system>
HepG2

>  <group_label>
inactive

$$$$
>  <compound>
Cc1noc(C)c1NC(=O)N(C)C[C@@H]1Oc2c(NC(=O)Nc3ccc(C(F)(F)F)cc3)cccc2C(=O)N([C@H](C)CO)C[C@H]1C

>  <target_system>
HepG2

>  <group_label>
inactive

$$$$
>  <compound>
COc1cc(OC)c([C@@H]2c3c(n(C)c(=O)n(C)c3=O)N=C3COC(=O)C32)cc1OC (stereo partly drawn)

>  <target_system>
HepG2

>  <group_label>
inactive

$$$$
>  <compound>
C[C@@H]1CCCCO[C@H](CN(C)Cc2ccc3c(c2)OCO3)[C@H](C)CN([C@@H](C)CO)C(=O)c2cc(NC(=O)Nc3ccccc3)ccc2O1

>  <target_system>
HepG2

>  <group_label>
inactive

$$$$
>  <compound>
NC(=O)Cn1c(=O)c2ccccc2n(CC(N)=O)c1=O

>  <target_system>
HepG2

>  <group_label>
inactive

$$$$
>  <compound>
O=C(C[C@H]1C[C@@H]2c3cc(NC(=O)Nc4ccc(C(F)(F)F)cc4)ccc3O[C@@H]2[C@H](CO)O1)NCc1ccc(Cl)cc1

>  <target_system>
HepG2

>  <group_label>
inactive

$$$$
>  <compound>
C[C@@H]1CN([C@@H](C)CO)C(=O)c2cc(NC(=O)Nc3ccc4c(c3)OCO4)ccc2O[C@@H](C)CCCCO[C@@H]1CN(C)Cc1ccccc1

>  <target_system>
HepG2

>  <group_label>
active

$$$$
>  <compound>
COc1ccc2cc1/C=C\NC(=O)[C@H](Cc1ccccc1)NC(=O)[C@@H]1[C@H](CCN1C(=O)[C@@H](NC(=O)[C@@H](C)N(C)C)C(C)C)O2

>  <target_system>
HepG2

>  <group_label>
inactive

$$$$
>  <compound>
Cc1noc(C)c1NC(=O)N(C)C[C@@H]1Oc2c(NC(=O)Nc3ccc(C(F)(F)F)cc3)cccc2C(=O)N([C@@H](C)CO)C[C@H]1C

>  <target_system>
HepG2

>  <group_label>
inactive

$$$$
>  <compound>
C[C@H](CO)N1C[C@H](C)[C@H](CN(C)C(=O)Nc2ccccc2C(F)(F)F)OCc2ccccc2-c2c(n(C)c3ccccc23)C1=O

>  <target_system>
HepG2

>  <group_label>
inactive

$$$$
>  <compound>
C[C@H](CO)N1C[C@H](C)[C@H](CN(C)C(=O)Nc2cccc(Cl)c2Cl)OCc2ccccc2-c2c(n(C)c3ccccc23)C1=O

>  <target_system>
HepG2

>  <group_label>
inactive

$$$$
>  <compound>
C[C@@H]1CN([C@H](C)CO)C(=O)c2c(c3ccccc3n2C)-c2ccccc2CO[C@H]1CN(C)C(=O)Nc1cccc(Cl)c1Cl

>  <target_system>
HepG2

>  <group_label>
inactive

$$$$
>  <compound>
C[C@@H]1CN([C@H](C)CO)C(=O)c2ccccc2-c2ccccc2CO[C@@H]1CN(C)C(=O)Nc1ccccc1C(F)(F)F

>  <target_system>
HepG2

>  <group_label>
inactive

$$$$
>  <compound>
Cc1noc(C)c1NC(=O)N(C)C[C@H]1Oc2ccc(NC(=O)Nc3cccc4ccccc34)cc2CC(=O)N([C@@H](C)CO)C[C@H]1C

>  <target_system>
HepG2

>  <group_label>
inactive

$$$$
